Here the recorded half-life is given for each entry.
# testProtocol: half-lives of hydrolysis of cytosine and 5-fluorocytosine derivatives in phosphate buffer
# runParameters: phosphate buffer, pH 7.1, Half-life of hydrolysis, cytosine derivatives

compound | half-life (min)
O=c1nc(NCN2CCCCC2)ccn1CN1CCCCC1 [VIII] | 1.42
O=c1nc(NCN2CCOCC2)ccn1CN1CCOCC1 [IXb, hydrate] | 9.72
CN1CCN(CNc2ccn(CN3CCN(C)CC3)c(=O)n2)CC1 [XI, hydrate] | 27.2
CN(C)CNc1ccn(CN(C)C)c(=O)n1 [X, hydrate] | 1

====

# testProtocol: solubilities of prodrugs and parent drugs in selected solvents (Example 8)
# runParameters: isopropyl myristate, organic solvent or mixture, Solubility, IPM; stirred at room temperature 24 hr
readoutName: solubility (mg/mL)

compound | resultUnit | recordedMeasurement
CCCN(CCC)Cn1cnc2c1c(=O)n(C)c(=O)n2C [IV, 7-(Dipropylamino)methyltheophylline] | mg/mL | 27.6
CCN(CC)Cn1cnc2c1c(=O)n(C)c(=O)n2C [III, 7-(Diethylamino)methyltheophylline] | mg/mL | 32.5

====

# testProtocol: physchem
# runParameters: ethylene glycol:formamide (1:1), organic solvent or mixture

compound | solubility, mg/mL
Nc1nc(=O)[nH]cc1F [Compound 5-FC, 5-fluorocytosine] | 17.5

====

Here the recorded half-life is given for each entry.
# testProtocol: half-lives of hydrolysis of cytosine and 5-fluorocytosine derivatives in phosphate buffer
# runParameters: phosphate buffer, pH 6, Half-life of hydrolysis

molecule | resultUnit | half-life
CN1CCN(CNc2nc(=O)n(CN3CCN(C)CC3)cc2F)CC1 [XVII, hydrate] | min | 20.1
O=c1nc(NCN2CCOCC2)c(F)cn1CN1CCOCC1 [XVI, hydrate] | min | 1.19
CN(C)CNc1nc(=O)n(CN(C)C)cc1F [XIII, hydrate] | min | 0.51
O=c1nc(NCN2CCCC2)c(F)cn1CN1CCCC1 [XV, hydrate] | min | 1.01
O=c1nc(NCN2CCCCC2)c(F)cn1CN1CCCCC1 [XIIb] | min | 0.86

====

# testProtocol: lipid and aqueous solubilities of 5-FC and its derivatives
# Assay type: physicochemical
# runParameters: organic solvent or mixture; isopropyl myristate, ±SD; read-out: Solubility, IPM
Everything with solubility at 48 h lower than 200 µg/mL is label 0; everything else, including exactly 200 µg/mL, is label 1.

compound | qualitativeLabel
Nc1nc(=O)[nH]cc1F | label 0
CN(C)CNc1nc(=O)n(CN(C)C)cc1F [XIII, hydrate] | label 1
O=c1nc(NCN2CCOCC2)c(F)cn1CN1CCOCC1 [XVI, hydrate] | label 0
CN1CCN(CNc2nc(=O)n(CN3CCN(C)CC3)cc2F)CC1 [XVII, hydrate] | label 0
O=c1nc(NCN2CCCC2)c(F)cn1CN1CCCC1 [XV, hydrate] | label 0
CCN(CC)CNc1nc(=O)n(CN(CC)CC)cc1F [XIV, hydrate] | label 1

====

# testProtocol: solubility of 5-iodo-2'-deoxycytidine in various vehicles
# Format: physicochemical
# runParameters: 1-octanol, organic solvent or mixture; read-out: Solubility of 5-IDC, mole fraction

smilesNotation | solubility [µM]
Nc1nc(=O)n([C@H]2C[C@H](O)[C@@H](CO)O2)cc1I | 960

====

# testProtocol: physchem
# runParameters: ipm, organic solvent or mixture
readoutName: solubility

molecule | recordedMeasurement
Nc1nc(=O)[nH]cc1F [Compound 5-FC, 5-fluorocytosine] | 4.5 µg/mL
